# method.notes: Oral bioavailability in Sprague-Dawley rat
# Assay type: ADME, organism-based
# condition.notes: in vivo
readout: bioavailability (%)
Numbers only, in %.

So what does the record say about bioavailability for Cc1oc(-c2ccccc2)nc1CCOc1ccc(C[C@]2(C(=O)O)CCCO2)nc1 ?
58

====

# method.notes: Clearance in iv dosed Sprague-Dawley rat
# Assay type: ADME, organism-based
# condition.notes: in vivo
readout: clearance (mL/min/kg)
Numbers only, in mL/min/kg.

What value of measured clearance is listed for Cc1oc(-c2ccccc2)nc1CCOc1ccc(C[C@]2(C(=O)O)CCCO2)nc1 ?
16.7

====

# target.system: Peroxisome proliferator-activated receptor alpha (Homo sapiens)
# Sequence (Q07869 whole entry): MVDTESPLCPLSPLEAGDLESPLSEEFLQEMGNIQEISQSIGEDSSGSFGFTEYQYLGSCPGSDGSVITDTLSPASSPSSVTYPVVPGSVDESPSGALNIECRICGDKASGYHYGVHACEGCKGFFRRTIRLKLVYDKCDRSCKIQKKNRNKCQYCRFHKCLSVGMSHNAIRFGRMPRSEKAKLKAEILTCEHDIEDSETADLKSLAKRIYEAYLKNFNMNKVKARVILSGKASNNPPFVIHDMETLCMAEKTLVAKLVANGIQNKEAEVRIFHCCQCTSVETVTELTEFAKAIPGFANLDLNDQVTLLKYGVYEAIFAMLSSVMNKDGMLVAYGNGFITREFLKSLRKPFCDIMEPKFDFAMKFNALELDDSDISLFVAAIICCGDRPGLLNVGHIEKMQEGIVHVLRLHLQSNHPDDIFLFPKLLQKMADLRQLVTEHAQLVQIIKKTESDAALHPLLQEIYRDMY
# method.notes: Displacement of radiolabeled GW-2331 from human PPAR alpha by SPA assay
Please provide measured Ki for the entries that follow.
Give bare numbers, in nM.

Solved entries (count: 5):
{"compound": "COc1ccc(-c2nc(CCOc3ccc(CC4(C(=O)O)CCCO4)nc3)c(C)o2)cc1 (stereo unspecified)", "Ki (nM)": 840}
{"compound": "CCOC(Cc1ccc(OCCc2nc(-c3ccccc3)oc2C)cn1)C(=O)O (stereo unspecified)", "Ki (nM)": 2000}
{"compound": "COC(Cc1ccc(OCCc2nc(-c3ccccc3)oc2C)cn1)C(=O)O (stereo unspecified)", "Ki (nM)": 3700}
{"compound": "Cc1oc(-c2ccccc2)nc1CCOc1cnc(CC2(C(=O)O)CCCO2)cn1 (stereo unspecified)", "Ki (nM)": 3490}
{"compound": "CCOC(Cc1ccc(OCCCc2nc(-c3ccccc3)oc2C)cn1)C(=O)O (stereo unspecified)", "Ki (nM)": 840}

// switching to the query compound
Item COC(C)(Cc1ccc(OCCc2nc(-c3ccccc3)oc2C)cn1)C(=O)O (stereo unspecified) has what recorded Ki?
4800

====

Would you mind telling me the reported Activity of each entry?
# target.system: Peroxisome proliferator-activated receptor alpha (Homo sapiens)
# Sequence (whole entry): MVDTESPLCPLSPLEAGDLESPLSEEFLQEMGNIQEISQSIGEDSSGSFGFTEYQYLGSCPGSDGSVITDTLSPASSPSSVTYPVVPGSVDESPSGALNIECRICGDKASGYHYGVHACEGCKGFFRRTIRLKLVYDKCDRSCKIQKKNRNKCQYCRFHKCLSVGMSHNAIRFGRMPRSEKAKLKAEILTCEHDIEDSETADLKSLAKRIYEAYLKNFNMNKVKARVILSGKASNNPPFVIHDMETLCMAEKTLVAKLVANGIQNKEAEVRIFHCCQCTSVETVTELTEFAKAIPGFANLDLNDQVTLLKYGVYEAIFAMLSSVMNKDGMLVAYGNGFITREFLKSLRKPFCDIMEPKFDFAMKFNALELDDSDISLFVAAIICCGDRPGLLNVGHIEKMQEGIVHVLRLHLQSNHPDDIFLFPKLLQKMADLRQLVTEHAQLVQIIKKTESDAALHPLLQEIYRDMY
# method.notes: Agonist activity at human PPAR alpha in HepG2 cells by PPAR-GAL4 transactivation assay relative to GW-2331
# Type: functional, cell-based
One number for each entry, in %.

Below, 3 compounds whose answers are already recorded.
{"compound": "COC(Cc1ccc(OCCc2nc(-c3ccccc3)oc2C)cn1)C(=O)O (stereo not given)", "target.system": "Peroxisome proliferator-activated receptor alpha (Homo sapiens)", "observed.result": 95}
{"compound": "Cc1oc(-c2ccc(Cl)cc2)nc1CCOc1ccc(CC2(C(=O)O)CCCO2)nc1 (stereo not given)", "target.system": "Peroxisome proliferator-activated receptor alpha (Homo sapiens)", "observed.result": 122}
{"compound": "Cc1oc(-c2ccccc2)nc1CCOc1ccc(C[C@]2(C(=O)O)CCCO2)nc1", "target.system": "Peroxisome proliferator-activated receptor alpha (Homo sapiens)", "observed.result": 97}

Provide reported Activity for each item, in the same order as listed.
1. COC(C)(Cc1ccc(OCCc2nc(-c3ccccc3)oc2C)cn1)C(=O)O (stereo not given)
2. Cc1oc(-c2ccccc2)nc1CCOc1cnc(CC2(C(=O)O)CCCO2)cn1 (stereo not given)
3. CCOC(Cc1ccc(OCCCc2nc(-c3ccccc3)oc2C)cn1)C(=O)O (stereo not given)
4. Cc1oc(-c2ccccc2)nc1CCOc1ccc(C[C@@]2(C(=O)O)CCCO2)nc1
5. Cc1oc(-c2ccccc2)nc1CCOc1ccc(CC2(C(=O)O)CCCO2)nc1 (stereo not given)
6. COc1cccc(-c2nc(CCOc3ccc(CC4(C(=O)O)CCCO4)nc3)c(C)o2)c1 (stereo not given)
7. Cc1cccc(-c2nc(CCOc3ccc(CC4(C(=O)O)CCCO4)nc3)c(C)o2)c1 (stereo not given)

[114, 77, 76, 6, 90, 98, 93]

Value source: ChEMBL document CHEMBL1139747
